B1: ATE1 (parent)
chain: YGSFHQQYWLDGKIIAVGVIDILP

# Variants of: B1
# assay: protein stability index of a GFP-peptide fusion (GPS, HEK-293T) (PSI 1-6); higher = more stable;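 also: lentivirally expressed fusions sorted by FACS into six bins by GFP to DsRed ratio, PSI derived from sequencing read proportions per bin multiplied by bin number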
# test_settings: c terminus: a fixed tail appended
Classification field: enter 1 for protein stability index values not below 3, 0 for values below it.

>>> df
    mutations  label_class
 0        F4N            1
 1       V17M            1
 2        F4P            0
 3       D21S            1
 4       I22K            0
 5       V19K            0
 6       I22H            0
 7        F4M            0
 8       L10Q            1
 9        Q6R            1
10       L10S            1
11       V17C            1
12       K13M            1
13       I20L            1
14       I14N            1
15        Y8K            0
16        F4S            1
17       L23M            0
18        Q7A            1
19       V17I            0
20       L10M            0
21       D21N            0
22        Q6D            0
23        Q6S            0
24       L23S            0
25        S3I            1
26        H5M            0
27       I20P            0
28       L10W            0
29       I22R            0
30       L10Y            0
31       I15Y            0
32        Q7I            0
33       K13A            0
34        G2Y            1
35       G12Q            0
36        Q6A            1
